The entries below are paired with their reported half-life at 1 μM.
ASSAY PROCEDURE: Metabolic stability in mouse liver microsomes (MLM)
Format: in vitro ADME, CD-1 mice
EXPERIMENTAL CONDITIONS: male, CD-1, mouse, pooled mouse liver microsomes, pH 7.4, 1 μM compound, 0.50 mg protein/mL, NADPH

{"COMPOUND": "N[C@]1(c2ccc(F)cc2)CCCCC1=O", "half-life at 1 μM": "> 2.42 h"}
{"COMPOUND": "N[C@@]1(c2ccc(F)cc2)CCCCC1=O", "half-life at 1 μM": "> 2.42 h"}
{"COMPOUND": "NC1(c2ccc(F)cc2)CCCCC1=O (racemic)", "half-life at 1 μM": "> 2.42 h"}
